Data credit: the supplement of paper PMC10567573

B1: RSPH3 (parent)
chain: FIPAKTGKDVATQILEGELFDFDL

# Variants of: B1
# Assay name: protein stability index of a GFP-peptide fusion (GPS, HEK-293T) (PSI 1-6); higher = more stable;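 further: lentivirally expressed fusions sorted by FACS into six bins by GFP to DsRed ratio, PSI derived from sequencing read proportions per bin multiplied by bin number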
# Measurement conditions: c terminus: a fixed tail appended
List of protein stability index values.
Value type: protein stability index

1) FIPAKTGKDVAEQILEGELFDFDL [T12E] | 2.04
2) FIPAKTGKDVATQILEGEHFDFDL [L19H] | 2.01
3) FSPAKTGKDVATQILEGELFDFDL [I2S] | 2.84
4) FIPAKTGKAVATQILEGELFDFDL [D9A] | 1.25
5) FIPAKTGKDVATQFLEGELFDFDL [I14F] | 1.74
6) FIPAKTGKDVATQILEGELFDADL [F22A] | 2.31
7) FIFAKTGKDVATQILEGELFDFDL [P3F] | 2.2
8) FIPAKTGKDVATPILEGELFDFDL [Q13P] | 1.95
9) FIPAKTGMDVATQILEGELFDFDL [K8M] | 1.63
10) FIPAKTGKDHATQILEGELFDFDL [V10H] | 1.82
11) FICAKTGKDVATQILEGELFDFDL [P3C] | 1.72
12) FIPAKTGKDVATTILEGELFDFDL [Q13T] | 1.99
13) FIPAKTGKDVATQILEGALFDFDL [E18A] | 1.74
14) FIPAKTGKDVATQILEGFLFDFDL [E18F] | 3.44
15) FIPAKTGSDVATQILEGELFDFDL [K8S] | 1.93
16) CIPAKTGKDVATQILEGELFDFDL [F1C] | 3.55
